All figures here come from paper PMC4919469.

target: Cdc42Δ7Q61L (human, UniProt P60953 1-184, Q61L); test: direct SPA, GTP-bound Cdc42

| Binder | Unit string | Kd |
| --- | --- | --- |
| GLSAQDISQPLQNSFIHTGHGDSDPRHCWGFPDRIDELYLGN (domain or fragment) [GST-ACK GBD] | nM | 46 |
